method: Protease stability in simulated intestinal fluids (FaSSIF) (Table 7)
Format: in vitro ADME
conditions: fassif with pancreatin, 240 min, 37° C., read-out: Remaining percentage of peptide compound, FaSSIF 240 (min)
Numbered stars: 1 amine (or outer) side, 2 acyl side, 3 side chain; on linkers, the order of the positions; unused ones are H or OH. Bridge positions count the residues as written; N and C are the ends. Square brackets hold non-standard residues; d marks the D form. Peptide text beside a SMILES is read from it. * marks the point of attachment. Trp(7-Me) = Cc1cccc2c(C[C@H](N)C(=O)O)c[nH]c12; NH(2-(3-pyridyl)ethyl) = c1cncc(CCN*)c1; Sebacoyl = O=C(CCCCCCCCC(=O)[*:2])[*:1]; αMeLys(Me2) = CN(C)CCCC[C@](C)(N)C(=O)O; 2Nal = N[C@@H](Cc1ccc2ccccc2c1)C(=O)O; Suberoyl = O=C(CCCCCCC(=O)[*:2])[*:1]; 3Pal = N[C@@H](Cc1cccnc1)C(=O)O; Lys(Me) = CNCCCC[C@H](N)C(=O)O; Aun = NCCCCCCCCCCC(=O)O; Thp = NC1(C(=O)O)CCOCC1; Me2NCH2CH2 = CN(C)CC*; Aib = CC(C)(N)C(=O)O; Sar = CNCC(=O)O
Each record here notes measured remaining at 4 h, 1 µM.
Write down the numeric answer in % and omit the unit.

Q: Quick one: remaining at 4 h, 1 µM for Cc1cccc2c(C[C@@H]3NC(=O)CCCCCCCCC(=O)N(C)CCCC[C@@H](C(=O)NCC(=O)NCCc4cccnc4)NC(=O)C(C)(C)NC(=O)[C@H](Cc4ccc5ccccc5c4)NC(=O)[C@H](Cc4ccc(OCCN(C)C)cc4)NC(=O)C4(CCOCC4)NC(=O)[C@H](CC(C)C)NC3=O)c[nH]c12 [compound 17] ([Trp(7-Me)]L[Thp]Y(Me2NCH2CH2)[2Nal][Aib][Lys(Me)]G-{NH(2-(3-pyridyl)ethyl)}; linker N-7 via Sebacoyl) ?
A: 95

Q: Also Cc1cccc2c(C[C@@H]3NC(=O)CCCCCCCCCCNC(=O)CC[C@@H](C(=O)N[C@@H](CC(N)=O)C(=O)N[C@@H](Cc4cccnc4)C(=O)N(C)CC(N)=O)NC(=O)C(C)(C)NC(=O)[C@H](Cc4ccc5ccccc5c4)NC(=O)[C@H](Cc4ccc(OCCN(C)C)cc4)NC(=O)C(C)(C)NC(=O)[C@H](CCC(N)=O)NC3=O)c[nH]c12 [compound 35] ([Aun][Trp(7-Me)]Q[Aib]Y(Me2NCH2CH2)[2Nal][Aib]EN[3Pal][Sar]-NH2; lactam N-8) ?
A: 87

Q: What do you get for Cc1cccc2c(C[C@@H]3NC(=O)CCCCCCC(=O)NCCCC[C@@H](C(=O)N[C@@H](CC(N)=O)C(=O)N[C@@H](Cc4cccnc4)C(=O)N(C)CC(N)=O)NC(=O)C(C)(C)NC(=O)[C@H](Cc4ccc5ccccc5c4)NC(=O)[C@H](Cc4ccc(OCCN(C)C)cc4)NC(=O)C4(CCOCC4)NC(=O)[C@H](CCC(N)=O)NC3=O)c[nH]c12 [compound 12] ([Trp(7-Me)]Q[Thp]Y(Me2NCH2CH2)[2Nal][Aib]KN[3Pal][Sar]-NH2; linker N-7 via Suberoyl) ?
A: 78

Q: And Cc1cccc2c(C[C@@H]3NC(=O)CCCCCCCCCCNC(=O)CC[C@@H](C(=O)N[C@@H](CC(N)=O)C(=O)N[C@@H](Cc4cccnc4)C(=O)N(C)CC(N)=O)NC(=O)C(C)(C)NC(=O)[C@H](Cc4ccc5ccccc5c4)NC(=O)[C@H](Cc4ccc(OCCN(C)C)cc4)NC(=O)C4(CCOCC4)NC(=O)[C@H](CC(C)C)NC3=O)c[nH]c12 [compound 7] ([Aun][Trp(7-Me)]L[Thp]Y(Me2NCH2CH2)[2Nal][Aib]EN[3Pal][Sar]-NH2; lactam N-8) ?
A: 82

Q: Moving on to the next molecule: CC(=O)NCCCC[C@@H]1NC(=O)[C@H](Cc2c[nH]c3c(C)cccc23)NC(=O)CCCCCCCCCCNC(=O)CC[C@@H](C(=O)N[C@@H](CC(N)=O)C(=O)N[C@@H](Cc2cccnc2)C(=O)N(C)CC(N)=O)NC(=O)[C@](C)(CCCCN(C)C)NC(=O)[C@H](Cc2ccc3ccccc3c2)NC(=O)[C@H](Cc2ccc(OCCN(C)C)cc2)NC(=O)C2(CCOCC2)NC1=O [compound 21] ([Aun][Trp(7-Me)]K(Ac)[Thp]Y(Me2NCH2CH2)[2Nal][αMeLys(Me2)]EN[3Pal][Sar]-NH2; lactam N-8)
A: 101
